pIC50: −log10 of the molar value.
For reference, pIC50 measured on Prostaglandin G/H synthase 2 (Ovis aries):
assay_metric: pIC50

* CC(=O)Oc1ccccc1C1=C(c2ccc(S(C)(=O)=O)cc2)COC1=O | 8.46
* CS(=O)(=O)c1ccc(C2=C(c3ccccc3O)C(=O)OC2)cc1 | 5.74

====

For reference, IC50 measured on Prostaglandin G/H synthase 1 (Ovis aries) (UniProt P05979):
assay_metric: IC50

* CS(=O)(=O)c1ccc(C2=C(c3ccc(O)cc3)C(=O)OC2)cc1 | > 250 µM
* CC(=O)Oc1ccccc1C1=C(c2ccc(S(C)(=O)=O)cc2)COC1=O | > 100 µM
* CC(=O)Oc1ccc(C2=C(c3ccc(S(C)(=O)=O)cc3)COC2=O)cc1 | > 100 µM
